Below, each entry is listed with its recorded IC50.
# System: A2780 ovarian carcinoma cells
# assay.summary: Antiproliferative activity on A2780 cells (MTT)
# Assay type: cell-based
# conditions.used: Homo sapiens, 96 h, four days of incubation, read-out: Cellular activity pIC50 (converted)

compound	assay.target	IC50 [nM]
O=C(NO)c1cnc(N2CCN(C3CCN(S(=O)(=O)c4ccc5ccccc5c4)CC3)CC2)nc1	A2780 ovarian carcinoma cells	964
O=C(NO)c1ccc(N2CCN(Cc3ccccc3)CC2)cc1	A2780 ovarian carcinoma cells	9120
COc1cc2c(=O)n(CC3CCN(c4ncc(C(=O)NO)cn4)CC3)c(C)nc2c(OC)c1OC	A2780 ovarian carcinoma cells	372
O=C(NO)c1cnc(N2CCC(Cn3c(-c4ccccc4)nc4ccccc4c3=O)CC2)nc1	A2780 ovarian carcinoma cells	658
O=C(NO)c1cnc(N2CCN(Cc3ccc4ccccc4c3)CC2)nc1	A2780 ovarian carcinoma cells	59.3
O=C(NO)c1cnc(N2CCN(CCc3ccc4ccccc4c3)CC2)nc1	A2780 ovarian carcinoma cells	444
O=C(NO)c1cnc(N2CCN(Cc3ccc(-c4ccc(CN5CCOCC5)cc4)o3)CC2)nc1	A2780 ovarian carcinoma cells	97.9
CCC(C)n1nc(C)n(-c2ccc(N3CCCN(c4ccc(C(=O)NO)cc4)CC3)cc2)c1=O (stereo not drawn)	A2780 ovarian carcinoma cells	15000
O=C(NO)c1cnc(N2CCC(N3CCN(S(=O)(=O)c4ccc5ccccc5c4)CC3)CC2)nc1	A2780 ovarian carcinoma cells	658
Cc1ccc2nc(-c3cc4ccccc4o3)n(CC3CCN(c4ncc(C(=O)NO)cn4)CC3)c(=O)c2c1	A2780 ovarian carcinoma cells	1170
O=C(NO)c1cnc(N2CCN(Cc3ccc(-c4ccc(CO)cc4)o3)CC2)nc1	A2780 ovarian carcinoma cells	153
Cc1nc2ccccc2c(=O)n1CC1CCN(c2ncc(C(=O)NO)cn2)CC1	A2780 ovarian carcinoma cells	1180

====

Binarize melting point at 200 °C; below is TRUE, at or above is FALSE.

compound	class
O=C(NO)c1cnc(N2CCN(C3CCN(S(=O)(=O)c4ccc5ccccc5c4)CC3)CC2)nc1	FALSE
O=C(NO)c1cnc(N2CCN(Cc3ccc4ccccc4c3)CC2)nc1	FALSE
O=C(NO)c1cnc(N2CCN(CCc3ccc4ccccc4c3)CC2)nc1	FALSE
O=C(NO)c1cnc(N2CCN(Cc3ccc(-c4ccc(CN5CCOCC5)cc4)o3)CC2)nc1 (hydrate or solvate)	TRUE
O=C(NO)c1cnc(N2CCN(Cc3ccc(-c4ccc(CO)cc4)o3)CC2)nc1	FALSE
O=C(NO)c1cnc(N2CCC(N3CCN(S(=O)(=O)c4ccc5ccccc5c4)CC3)CC2)nc1	FALSE

====

Below, each entry is listed with its recorded Enzyme activity pIC50.
# assay.target: histone deacetylase (HeLa nuclear extracts)
# assay.summary: In vitro assay for inhibition of histone deacetylase
# Type: biochemical
# conditions.used: [3H]acetylated histone H4 peptide substrate, 30 min

compound	censor.symbol	Enzyme activity pIC50
O=C(NO)c1ccc(N2CCN(C3CCCCC3)CC2)c([N+](=O)[O-])c1 [compound 16]	=	5.698
O=C(NO)c1cnc(N2CCN(Cc3ccc4ccccc4c3)CC2)nc1 [Co. No. 6]	=	8.148
O=C(NO)c1cccc(CN2CCN(c3cccc4ccccc34)CC2)c1 [compound 49]	<	5
O=C(NO)c1ccc(N2CCN(c3ccc(Cl)cc3)CC2)c([N+](=O)[O-])c1 [compound 20]	<	5
O=C(NO)c1ccc(N2CCN(Cc3ccccc3)CC2)cc1 [Co. No. 2]	=	6.377

====

Below, each entry is listed with its recorded solubility.
# assay.summary: Kinetic solubility in aqueous media
# Assay type: physicochemical
# conditions.used: aqueous buffer, kinetic from dmso stock; phosphate citrate buffer pH 7.4, turbidity by nephelometer; read-out: Solubility Score
# Experimental: Kinetic solubility in aqueous media measures the ability of a compound to stay in aqueous solution upon dilution (see example C.3). DMSO-stock solutions are diluted with a single aqueous buffer solvent in 3 consecutive steps. For every dilution turbidity is measured with a nephelometer. In the first dilution step, 10 μl of a concentrated stock-solution of the active compound, solubilized in DMSO (5 mM), was added to 100 μl phosphate citrate buffer pH 7.4 and mixed. […]

molecule	solubility
O=C(NO)c1cnc(N2CCC(N3CCN(S(=O)(=O)c4ccc5ccccc5c4)CC3)CC2)nc1	> 454 µM
O=C(NO)c1ccc(N2CCN(Cc3ccccc3)CC2)cc1	> 454 µM
O=C(NO)c1cnc(N2CCN(Cc3ccc(-c4ccc(CO)cc4)o3)CC2)nc1	> 454 µM
O=C(NO)c1cnc(N2CCN(Cc3ccc(-c4ccc(CN5CCOCC5)cc4)o3)CC2)nc1	> 454 µM
O=C(NO)c1cccc(CN2CCN(c3cccc4ccccc34)CC2)c1	75.8 to 454 µM
O=C(NO)c1ccc(CN2CCN(c3cccc4ccccc34)CC2)cc1	75.8 to 454 µM
O=C(NO)c1cnc(N2CCN(CCc3ccc4ccccc4c3)CC2)nc1	> 454 µM
CCC(C)n1nc(C)n(-c2ccc(N3CCCN(c4ccc(C(=O)NO)cc4)CC3)cc2)c1=O (stereo not shown)	> 454 µM
O=C(NO)c1cnc(N2CCN(C3CCN(S(=O)(=O)c4ccc5ccccc5c4)CC3)CC2)nc1	< 75.8 µM
O=C(NO)c1cnc(N2CCN(Cc3ccc4ccccc4c3)CC2)nc1	> 454 µM

====

Below, each entry is listed with its recorded Enzyme activity pIC50.
# assay.target: histone deacetylase (HeLa nuclear extracts)
# assay.summary: In vitro assay for inhibition of histone deacetylase
# Assay type: biochemical
# conditions.used: [3H]acetylated histone H4 peptide substrate, 30 min
endpoint.label: Enzyme activity pIC50

structure.notation	censor.symbol	observed.measurement
O=C(NO)c1ccc(N2CCN(Cc3ccc4c(c3)OCO4)CC2)c([N+](=O)[O-])c1	>	5
O=C(NO)c1ccc(N2CCN(c3ccc(Cl)c(Cl)c3)CC2)c([N+](=O)[O-])c1	>	5
O=C(NO)c1ccc(N2CCN(c3ccc(C(F)(F)F)cn3)CC2)c([N+](=O)[O-])c1	=	5
O=C(NO)c1ccc(N2CCN(c3ccccc3F)CC2)c([N+](=O)[O-])c1	>	5
O=C(NO)c1cnc(N2CCC(Cn3c(-c4ccccc4)nc4ccccc4c3=O)CC2)nc1	=	7.427
O=C(NO)c1cc([N+](=O)[O-])ccc1N1CCN(c2ccccc2Cl)CC1	<	5
O=C(NO)c1cnc(N2CCN(C3CCN(S(=O)(=O)c4ccc5ccccc5c4)CC3)CC2)nc1	=	7.28
O=C(NO)c1cnc(N2CCN(Cc3ccc(-c4ccc(CN5CCOCC5)cc4)o3)CC2)nc1	=	7.889

====

# assay.target: histone deacetylase (HeLa nuclear extracts)
# assay.summary: In vitro assay for inhibition of histone deacetylase
# Format: biochemical
# conditions.used: [3H]acetylated histone H4 peptide substrate, 30 min
endpoint.label: Enzyme activity pIC50

molecule	assay.target	censor.symbol	observed.measurement
CCC(C)n1nc(C)n(-c2ccc(N3CCCN(c4ccc(C(=O)NO)cc4)CC3)cc2)c1=O (centres unmarked) [Co. No. 1]	histone deacetylase (HeLa nuclear extracts)	=	5.121
O=C(NO)c1ccc(N2CCN(c3ncccn3)CC2)c([N+](=O)[O-])c1 [compound 21]	histone deacetylase (HeLa nuclear extracts)	=	5
O=C(NO)c1ccc(N2CCC(Cc3ccccc3)CC2)c([N+](=O)[O-])c1 [compound 27]	histone deacetylase (HeLa nuclear extracts)	<	5
O=C(NO)c1ccc(N2CCN(c3cccc(C(F)(F)F)c3)CC2)c([N+](=O)[O-])c1 [compound 19]	histone deacetylase (HeLa nuclear extracts)	>	5
O=C(NO)c1cnc(N2CCN(CCc3ccc4ccccc4c3)CC2)nc1 [Co. No. 7]	histone deacetylase (HeLa nuclear extracts)	=	7.952
O=C(NO)c1ccc(N2CCN(c3ccccn3)CC2)c([N+](=O)[O-])c1 [compound 18]	histone deacetylase (HeLa nuclear extracts)	>	5
O=C(NO)c1ccc(N2CCN(Cc3ccccc3)CC2)c([N+](=O)[O-])c1 [compound 24]	histone deacetylase (HeLa nuclear extracts)	<	5
O=C(NO)c1cnc(N2CCC(Cn3c(C(c4ccccc4)C4CCCC4)nc4cccc(F)c4c3=O)CC2)nc1 (centres unmarked) [compound 54]	histone deacetylase (HeLa nuclear extracts)	=	6.176
O=C(NO)c1cnc(N2CCC(Cn3c(-c4cccnc4Oc4ccccc4)nc4cccc(F)c4c3=O)CC2)nc1 [compound 53]	histone deacetylase (HeLa nuclear extracts)	=	7.295
Cc1nc2ccccc2c(=O)n1CC1CCN(c2ncc(C(=O)NO)cn2)CC1 [compound 51]	histone deacetylase (HeLa nuclear extracts)	=	7.561
O=C(NO)c1ccc(CN2CCN(c3cccc4ccccc34)CC2)cc1 [compound 50]	histone deacetylase (HeLa nuclear extracts)	=	5.206
COc1cc2c(=O)n(CC3CCN(c4ncc(C(=O)NO)cn4)CC3)c(C)nc2c(OC)c1OC [Co. No. 8]	histone deacetylase (HeLa nuclear extracts)	=	7.365
O=C(NO)c1cnc(N2CCN(Cc3ccc(-c4ccc(CO)cc4)o3)CC2)nc1 [Co. No. 5]	histone deacetylase (HeLa nuclear extracts)	=	8.035
O=C(NO)c1ccc(N2CCN(c3ccc(C(F)(F)F)cc3)CC2)c([N+](=O)[O-])c1 [compound 26]	histone deacetylase (HeLa nuclear extracts)	>	5
O=C(NO)c1ccc(N2CCC(n3c(=O)[nH]c4ccccc43)CC2)c([N+](=O)[O-])c1 [compound 28]	histone deacetylase (HeLa nuclear extracts)	>	5
COc1ccccc1N1CCN(c2ccc(C(=O)NO)cc2[N+](=O)[O-])CC1 [compound 15]	histone deacetylase (HeLa nuclear extracts)	>	5
O=C(NO)c1ccc(N2CCN(c3cccc(Cl)c3)CC2)c([N+](=O)[O-])c1 [compound 11]	histone deacetylase (HeLa nuclear extracts)	<	5
